- Test system: Aedes aegypti larvae
- procedure.summary: larval motility relative to same well at 0 h (fraction); higher = more motile (less active compound), active = 0.4 or less
- applied.conditions: 10 µM; 24 h
Possible outcomes: YES (active), NO (inactive)

{"molecule": "CC[C@@]1(O)C(=O)OCc2c1cc1n(c2=O)Cc2cc3c(CN(C)C)c(O)ccc3nc2-1", "label.class": "NO"}
{"molecule": "O=C(NCc1ncc(C(F)(F)F)cc1Cl)c1c(Cl)cccc1Cl", "label.class": "NO"}
{"molecule": "Cc1cc(CCCOc2c(C)cc(-c3noc(C(F)(F)F)n3)cc2C)on1", "label.class": "NO"}
{"molecule": "COc1ccc(COc2cc3oc(=O)c4cc(C(C)O)ccc4c3cc2OC)cc1 (stereo not given)", "label.class": "NO"}
{"molecule": "Nc1nc(O)c(Br)c(-c2ccccc2)n1", "label.class": "NO"}
{"molecule": "COc1cc(NC(=O)CN2C(=O)NC(c3ccccc3)(c3ccccc3)C2=O)cc(OC)c1", "label.class": "NO"}
{"molecule": "O=C(NCc1ccccc1Cl)c1cnc2ccccc2n1", "label.class": "NO"}
{"molecule": "CC(C)(C)c1ccc(OCCn2nc(C(=O)O)c3ccccc3c2=O)cc1", "label.class": "NO"}
{"molecule": "O=[N+]([O-])/C(Br)=C/c1ccc(Br)o1", "label.class": "NO"}
{"molecule": "CCC(C)n1ncn(-c2ccc(N3CCN(c4ccc(OCC5COC(Cn6cncn6)(c6ccc(Cl)cc6Cl)O5)cc4)CC3)cc2)c1=O (stereo not given)", "label.class": "NO"}
{"molecule": "NC(=O)c1cnc2ccc(S(=O)(=O)c3ccccc3)cc2c1Nc1ccc(O)cc1", "label.class": "NO"}
{"molecule": "CCOc1ccc(/C=N/NC(=O)C2CC2c2ccc(C(C)(C)C)cc2)cc1OCC (stereo not given)", "label.class": "NO"}
{"molecule": "Cn1c2ccccc2c(=O)c2c(O)cccc21", "label.class": "NO"}
{"molecule": "CC(=N)N1CC[C@H](SC2=C(C(=O)O)N3C(=O)[C@@H]([C@@H](C)O)[C@H]3C2)C1", "label.class": "NO"}
{"molecule": "COC(=O)Nc1nc2c(C)cccc2[nH]1", "label.class": "NO"}
{"molecule": "Clc1cc(Cl)c2c(c1)CCc1ccccc1C2n1ccnc1 (stereo not given)", "label.class": "NO"}
{"molecule": "O=C(O)/C=C/C=C/c1cccc(Oc2cc(Cl)cc(Cl)c2)c1", "label.class": "NO"}
{"molecule": "O=C(Nc1cccc(C2=NCCN2)c1)c1ccc(-c2ccc(C(=O)Nc3cccc(C4=NCCN4)c3)cc2)cc1", "label.class": "NO"}
{"molecule": "COc1ccc(CNC(=O)C(NS(=O)(=O)c2ccc3nc(C)sc3c2)C(C)C)cc1 (stereo not given)", "label.class": "YES"}
{"molecule": "CC(Oc1ccc(Cl)cc1Cl)C(=O)NCc1ccc2c(c1)OCO2 (stereo not given)", "label.class": "NO"}
{"molecule": "O=C(O)c1cc(-c2ccc(Br)cc2)nc2ccc(Cl)cc12", "label.class": "NO"}
{"molecule": "CCC[C@H](NC(=O)[C@@H]1[C@H]2CCC[C@H]2CN1C(=O)[C@@H](NC(=O)[C@@H](NC(=O)c1cnccn1)C1CCCCC1)C(C)(C)C)C(=O)C(=O)NC1CC1", "label.class": "NO"}
{"molecule": "O=C(NNC(=S)Nc1ccc(Cl)cc1)c1ccncc1", "label.class": "NO"}
{"molecule": "COc1ccc(C2CNC(=O)C2)cc1OC1CCCC1 (stereo not given)", "label.class": "NO"}
{"molecule": "Fc1ccc(-n2cc(Cn3c(-c4cccc(F)c4)nc4ccccc43)nn2)cc1", "label.class": "NO"}
{"molecule": "O=c1oc2ccc(Br)cc2cc1CSc1ncc[nH]1", "label.class": "NO"}
{"molecule": "Nc1cnn(C2OC(CO)C(O)C2O)c(=O)n1 (stereo not given)", "label.class": "NO"}
{"molecule": "Nc1nc(-c2ccccc2)nc2c1ncn2[C@@H]1O[C@H](COS(=O)(=O)NC(=O)c2ccccc2O)[C@@H](O)[C@H]1O", "label.class": "NO"}
{"molecule": "O=C(Nc1ccccc1C(=O)O)c1cccc(Oc2ccccc2)c1", "label.class": "NO"}
{"molecule": "CCOc1noc2cc(OCCC3CCN(c4ccc(C)nn4)CC3)ccc12", "label.class": "NO"}
{"molecule": "O=C1NC(=S)N/C1=C\\c1cc(Br)cc(Br)c1O", "label.class": "NO"}
{"molecule": "O=C(/C=C\\n1cnc(-c2cc(C(F)(F)F)cc(C(F)(F)F)c2)n1)NNc1ccccn1", "label.class": "NO"}
{"molecule": "O=C(c1ccc(F)cc1)N1CCN2C(=O)c3ccccc3C12c1ccccc1 (stereo not given)", "label.class": "NO"}
{"molecule": "Cn1cc(NC(=O)c2cc(NC(=O)c3ccc(/C=C/c4cnc5ccccc5c4)cc3)cn2C)cc1C(=O)NCCN1CCOCC1", "label.class": "NO"}
{"molecule": "Cc1cc(NS(=O)(=O)c2ccc(-c3ccc(F)cc3F)cc2)no1", "label.class": "NO"}
{"molecule": "NS(=O)(=O)c1ccc(NC(=O)NC(c2ccccc2)c2ccccc2)cc1", "label.class": "NO"}
{"molecule": "Cc1cc(C2CCCCC2)n(O)c(=O)c1", "label.class": "NO"}
{"molecule": "CCc1nc(N)nc(N)c1C#CCc1ccccc1", "label.class": "NO"}
{"molecule": "COc1ccc(-n2cnc3cc(NCc4ccco4)ccc32)cc1", "label.class": "NO"}
{"molecule": "CC(C)=CCC/C(C)=C/CNCCNC1C2CC3CC(C2)CC1C3 (stereo not given)", "label.class": "NO"}
